# Test system: Plasmodium falciparum
# procedure.summary: Screen against P. falciparum Asexual Blood Stage (ABS), at 5uM
# Format: functional, Dd2
# reported.conditions: tested at 5 uM
Screen size: about 65,000 compounds; about 2,100 (3.2%) showed an effect of 50% or more. The median lay at about -52%. The list comes from a sample in which strong results are over-represented; it also holds close analogues and randomly drawn compounds.
Here, each record is paired with measured INHIBITION data.
measurement.label: INHIBITION (%)

- molecule: "c1ccc(CN2CCCC[C@H]3CN(c4ncccn4)C[C@H]32)cc1"
  target.or.test.system: "Plasmodium falciparum"
  measurement.label: "INHIBITION"
  number: 3.59
- molecule: "c1cncc(OC[C@@]23CCC[C@@H]2CN(C2CCOCC2)C3)c1"
  target.or.test.system: "Plasmodium falciparum"
  measurement.label: "INHIBITION"
  number: 3.99
- molecule: "O=C(C1CC1)N1CCC2(CC1)OCCO2"
  target.or.test.system: "Plasmodium falciparum"
  measurement.label: "INHIBITION"
  number: -77.4
- molecule: "Cc1noc(C)c1CN1CC2(CCCCN2C)CC1=O (stereo not given)"
  target.or.test.system: "Plasmodium falciparum"
  measurement.label: "INHIBITION"
  number: -15.4
- molecule: "Cc1ccccc1-n1cc(C2=CCN(CCn3cc[nH]c3=O)CC2)cn1"
  target.or.test.system: "Plasmodium falciparum"
  measurement.label: "INHIBITION"
  number: -111
- molecule: "Cc1noc(C)c1CN1CC[C@H]2OCC[C@@]2(C(=O)NCC2CC2)C1"
  target.or.test.system: "Plasmodium falciparum"
  measurement.label: "INHIBITION"
  number: -139
- molecule: "CN(C)CCN1CCN(Cc2ccco2)Cc2cccnc21"
  target.or.test.system: "Plasmodium falciparum"
  measurement.label: "INHIBITION"
  number: 11.9
- molecule: "CC(C)N1CCc2c(CN(C)Cc3ccco3)cncc2C1"
  target.or.test.system: "Plasmodium falciparum"
  measurement.label: "INHIBITION"
  number: -16.1
- molecule: "Cc1noc(C)c1CN(C)C(=O)CN1CC(c2ccccc2)CC1=O (stereo not given)"
  target.or.test.system: "Plasmodium falciparum"
  measurement.label: "INHIBITION"
  number: -83.2
- molecule: "CCc1cc(CN(C)C(=O)CN2CC(c3ccccc3)CC2=O)on1 (stereo not given)"
  target.or.test.system: "Plasmodium falciparum"
  measurement.label: "INHIBITION"
  number: -13.6
- molecule: "C[C@@H]1CN(C(=O)C2CCS(=O)(=O)CC2)CC[C@@]1(O)C1CCOCC1"
  target.or.test.system: "Plasmodium falciparum"
  measurement.label: "INHIBITION"
  number: 71.2
- molecule: "CCn1ccnc1CN1CCN(C(C)C)CC1C (stereo not given)"
  target.or.test.system: "Plasmodium falciparum"
  measurement.label: "INHIBITION"
  number: -35.9
- molecule: "CCCC(=O)N1CCC2(CC1)OCCO2"
  target.or.test.system: "Plasmodium falciparum"
  measurement.label: "INHIBITION"
  number: -40.8
- molecule: "Cc1cn2c(n1)C(CNCc1cccc3c1OCO3)CCC2 (stereo not given)"
  target.or.test.system: "Plasmodium falciparum"
  measurement.label: "INHIBITION"
  number: 82.1
- molecule: "c1cc(CN2CC[C@@H]3CN(c4cncnc4)C[C@@H]3C2)ccn1"
  target.or.test.system: "Plasmodium falciparum"
  measurement.label: "INHIBITION"
  number: -49.4
- molecule: "O=C(Cc1cnccn1)N1C[C@@H]2CC[C@H]1CN(Cc1cscn1)C2"
  target.or.test.system: "Plasmodium falciparum"
  measurement.label: "INHIBITION"
  number: -120
- molecule: "Cn1ccnc1CN1CCCC(CCc2ccc(F)c(F)c2)C1 (stereo not given)"
  target.or.test.system: "Plasmodium falciparum"
  measurement.label: "INHIBITION"
  number: 74.5
- molecule: "Cc1nc(CN2CCCC(CCc3ccc(F)c(F)c3)C2)c[nH]1 (stereo not given)"
  target.or.test.system: "Plasmodium falciparum"
  measurement.label: "INHIBITION"
  number: 81.9
- molecule: "CCCc1nc(CNC(C)Cn2cccn2)cs1 (stereo not given)"
  target.or.test.system: "Plasmodium falciparum"
  measurement.label: "INHIBITION"
  number: -91.5
- molecule: "Cc1noc(C)c1CNCc1ccccc1N(C)C1CCN(C)CC1"
  target.or.test.system: "Plasmodium falciparum"
  measurement.label: "INHIBITION"
  number: 73.6
- molecule: "CC(Cn1cccn1)NCC(=O)NC1CCOCC1 (stereo not given)"
  target.or.test.system: "Plasmodium falciparum"
  measurement.label: "INHIBITION"
  number: -32.4
- molecule: "CN(C)CCN1CC2(CCCN(c3ncc(Cl)cc3F)C2)CCC1=O (stereo not given)"
  target.or.test.system: "Plasmodium falciparum"
  measurement.label: "INHIBITION"
  number: 82.8
- molecule: "CN1CCC(C2CCN(Cc3cccc(-n4cccn4)c3)CC2)C1 (stereo not given)"
  target.or.test.system: "Plasmodium falciparum"
  measurement.label: "INHIBITION"
  number: 85.7
- molecule: "CCn1cc(CN2CCCCC2CCn2ccnc2C)cc1C#N (stereo not given)"
  target.or.test.system: "Plasmodium falciparum"
  measurement.label: "INHIBITION"
  number: 78.2
- molecule: "CCN(CC)Cc1ccccc1NC(=O)N(C)Cc1ccccc1O"
  target.or.test.system: "Plasmodium falciparum"
  measurement.label: "INHIBITION"
  number: 85

---

# Tested on: Plasmodium falciparum
# procedure.summary: Screen against P. falciparum Asexual Blood Stage (ABS), at 5uM
# Type: functional, Dd2
# reported.conditions: tested at 5 uM
Among all 65,000 compounds or so, about 2,100 (3.2%) showed an effect of 50% or more. The median lay at about -52%. The entries come from a sample that favours strong results as a whole.

- compound: "c1csc(CN2C[C@@H]3COC[C@]3(COCc3ccncc3)C2)c1"
  INHIBITION: "-42.6%"
- compound: "Cc1ccnc(CC(C)N(C)Cc2ccc3c(c2)CCO3)c1 (stereo unspecified)"
  INHIBITION: "-33.2%"
- compound: "Cn1ccc(CN2CCCC23CCNCC3)n1"
  INHIBITION: "-53.7%"
- compound: "O=C1CSC(c2ccc(O)cc2)c2c(n(C3CCOCC3)[nH]c2=O)N1 (stereo unspecified)"
  INHIBITION: "-92.3%"
- compound: "COc1cccc([C@H]2CN(C(C)=O)[C@@H]3CCN(Cc4ccsc4)C[C@H]23)c1"
  INHIBITION: "73.9%"
- compound: "CCC(CC)NCC(C)Oc1cccnc1 (stereo unspecified)"
  INHIBITION: "-116%"
- compound: "CCO[C@@H]1CC[C@H]2[C@H]1OCCN2CC1CCC1"
  INHIBITION: "-47.6%"
- compound: "c1cnc(N2CCO[C@H]3CN(Cc4ccsc4)C[C@H]32)nc1"
  INHIBITION: "35.9%"
- compound: "O=S(=O)(C1CC1)N1CCC2(CCCN(Cc3ccccn3)C2)C1 (stereo unspecified)"
  INHIBITION: "12.2%"
- compound: "COCC(=O)N1C[C@H]2CNC[C@@]2(C(=O)NCc2c(C)noc2C)C1"
  INHIBITION: "-53.3%"
- compound: "O=C1[C@H]2CN(CC3CC3)C[C@H]2CN1c1ccsc1"
  INHIBITION: "-60.4%"
